Data origin: patent US10011596B2

# target_under_test: human BACE1 (Homo sapiens, UniProt P56817)
# Sequence (P56817 46-501): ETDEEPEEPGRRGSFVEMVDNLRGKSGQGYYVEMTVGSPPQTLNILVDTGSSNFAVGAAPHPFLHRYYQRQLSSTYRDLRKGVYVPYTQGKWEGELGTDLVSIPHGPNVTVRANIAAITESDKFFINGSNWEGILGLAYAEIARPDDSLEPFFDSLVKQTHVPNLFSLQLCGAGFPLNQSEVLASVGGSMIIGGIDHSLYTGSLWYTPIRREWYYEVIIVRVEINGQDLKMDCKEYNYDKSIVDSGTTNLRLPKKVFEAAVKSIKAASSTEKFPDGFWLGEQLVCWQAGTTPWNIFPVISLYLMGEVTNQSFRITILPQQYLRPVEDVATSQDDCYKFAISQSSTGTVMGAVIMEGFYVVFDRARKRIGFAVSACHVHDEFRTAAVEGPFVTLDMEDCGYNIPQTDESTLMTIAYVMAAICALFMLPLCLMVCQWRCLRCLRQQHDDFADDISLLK
# experimental_protocol: BACE1 efficacy assay (FRET-based, commercial BACE1 kit)
# Type: biochemical
# Parameters: purchased Life Technologies P2985
# assay_setup: test compound at 10 μM
readout: inhibition at 10 µM (%)

C[C@@]1(c2cc(NC(=O)c3cnc(C(F)F)cn3)ccc2F)CC[C@@](F)(CF)C(N)=N1 [Compound 11] | 103
COc1ccc(C(=O)Nc2cc(F)c(F)c([C@]3(C)CC[C@@](F)(CF)C(N)=N3)c2)nc1 [Compound 16] | 104
[2H]C([2H])([2H])Oc1ccc(C(=O)Nc2ccc(F)c([C@]3(C)CC[C@@](F)(CF)C(N)=N3)c2)nc1 [Compound 2] | 104
C[C@@]1(c2cc(NC(=O)c3ccc(F)cn3)cc(F)c2F)CC[C@@](F)(CF)C(N)=N1 [Compound 15] | 104
Cc1cc(C#N)cnc1C(=O)Nc1ccc(F)c([C@]2(C)CC[C@@](F)(CF)C(N)=N2)c1 [Compound 3] | 105
C[C@@]1(c2cc(NC(=O)c3ccc(F)cn3)ccc2F)CC[C@@](F)(CF)C(N)=N1 [Compound 13] | 100
COc1ccc(C(=O)Nc2cc(F)c(F)c([C@]3(C)CC[C@](F)(CF)C(N)=N3)c2)nc1 [Compound 19] | 104

====

# target_under_test: human BACE1 (Homo sapiens, UniProt P56817)
# experimental_protocol: BACE1 binding assay (SPA-based, radioligand displacement)
# Design: biotin (biotinylated form); made in house; host or cells: Freestyle HEK293 cells
# assay_setup: pH 4.5, 10 nM radioligand, 6 nM human BACE1, read-out: BACE1 binding affinity
pKi: −log10 of the molar value.
readout: pKi

Before answering, review these 3 worked examples.
Cc1cc(C#N)cnc1C(=O)Nc1ccc(F)c([C@]2(C)CC[C@@](F)(CF)C(N)=N2)c1 | 8.00
Cc1nc(C(=O)Nc2ccc(F)c([C@]3(C)CC[C@@](F)(CF)C(N)=N3)c2)co1 | 7.34
C[C@@]1(c2cc(NC(=O)c3cnc(C(F)F)cn3)ccc2F)CC[C@@](F)(CF)C(N)=N1 | 7.26

A = C[C@@]1(c2cc(NC(=O)c3ccc(F)cn3)ccc2F)CC[C@@](F)(CF)C(N)=N1
B = COc1cnc(C(=O)Nc2ccc(F)c([C@]3(C)CC[C@@](F)(CF)C(N)=N3)c2)cn1
QUERY: # query: argmin of pKi over A and B Select an item and report its label.
RESULT: A
(A: 7.40, B: 7.62)

a = Cc1csc(C(=O)Nc2ccc(F)c([C@]3(C)CC[C@@](F)(CF)C(N)=N3)c2)n1
b = COc1cnc(C(=O)Nc2cc(F)c(F)c([C@]3(C)CC[C@](F)(CF)C(N)=N3)c2)cn1
QUERY: Out of a and b , name the one with the higher pKi. Please reply using the label of the selected record.
RESULT: a

====

# target_under_test: human BACE1 (Homo sapiens, UniProt P56817)
# experimental_protocol: BACE1 efficacy assay (FRET-based, commercial BACE1 kit)
# Format: biochemical
# Design: purchased Life Technologies P2985
# assay_setup: test compound at 10 μM
# Procedure: The efficacy assay was performed as a FRET-based assay using a commercially available BACE1 kit (Life Technologies, P2985). 2 μl test compound at 10 μM (final concentration) and 15 μl BACE1 enzyme from the kit (final concentration 3 nM) were preincubated for 15 minutes at room temperature before addition of 15 μl of substrate from the kit (250 nM final concentration) and incubated for additional 90 minutes at room temperature. The assay plate was subsequently read in a Pherastar (Ex540/Em590).
readout: inhibition at 10 µM (%)

Cc1nc(C(=O)Nc2ccc(F)c([C@]3(C)CC[C@@](F)(CF)C(N)=N3)c2)co1 [Compound 6] | 106
C[C@@]1(c2cc(NC(=O)c3ccc(Cl)cn3)ccc2F)CC[C@@](F)(CF)C(N)=N1 [Compound 4] | 102
COc1ccc(C(=O)Nc2ccc(F)c([C@]3(C)CC[C@@](F)(CF)C(N)=N3)c2)nc1 [Compound 1] | 106
COc1ccc(C(=O)Nc2ccc(F)c([C@]3(C)CC[C@](F)(CF)C(N)=N3)c2)nc1 [Compound 14] | 103
COc1cnc(C(=O)Nc2cc(F)c(F)c([C@]3(C)CC[C@](F)(CF)C(N)=N3)c2)cn1 [Compound 20] | 102
Cn1cc(Br)nc1C(=O)Nc1ccc(F)c([C@]2(C)CC[C@@](F)(CF)C(N)=N2)c1 [Compound 7] | 104
C[C@@]1(c2cc(NC(=O)c3ccn(C(F)F)n3)ccc2F)CC[C@@](F)(CF)C(N)=N1 [Compound 10] | 103
